target: Serine/threonine-protein kinase pim-1 (Homo sapiens, UniProt P11309); also: in the data inactive means no Kd found up to 30 µM
Sequence (P11309 whole entry): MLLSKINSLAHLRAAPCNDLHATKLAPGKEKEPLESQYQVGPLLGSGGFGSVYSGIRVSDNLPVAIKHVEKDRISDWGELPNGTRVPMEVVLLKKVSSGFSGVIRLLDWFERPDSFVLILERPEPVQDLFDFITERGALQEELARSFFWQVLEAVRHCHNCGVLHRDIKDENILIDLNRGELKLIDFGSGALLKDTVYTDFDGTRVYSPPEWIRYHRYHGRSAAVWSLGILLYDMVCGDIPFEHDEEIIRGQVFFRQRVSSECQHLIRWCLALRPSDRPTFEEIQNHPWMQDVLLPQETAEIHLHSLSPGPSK
Activity calls are given as the source filed them.
Value type: Kd

Completed entries (count: 3):
1. CN1CCN(c2nc(C3=C(c4c[nH]c5ccccc45)C(=O)NC3=O)c3ccccc3n2)CC1    8.84 µM
2. COc1cc2ncnc3c2cc1OCCCCCN(C)Cc1ccc(Br)cc1N3    > 30 µM (inactive)
3. Cn1c(=O)c(F)c(Nc2ccc(I)cc2F)c2c(=O)n(C[C@@H](O)CO)cnc21    > 30 µM (inactive)

We next turn to a different compound, shown below.
Enquiry: Would you kindly share the measured Kd for COc1ccc(-c2ccc3ncc4c(c3c2)n(-c2ccc(N3CCNCC3)c(C(F)(F)F)c2)c(=O)n4C)cn1 [BGT-226 FREE BASE] ?
Return: > 30 µM (inactive)
